- system tested: CYP1A2 (Homo sapiens, UniProt P05177)
- Construct: purchased Discovery Labware (BD/Gentest); host or cells: insect cell expression system (membrane fractions)
- Sequence (P05177 2-516 limits assumed): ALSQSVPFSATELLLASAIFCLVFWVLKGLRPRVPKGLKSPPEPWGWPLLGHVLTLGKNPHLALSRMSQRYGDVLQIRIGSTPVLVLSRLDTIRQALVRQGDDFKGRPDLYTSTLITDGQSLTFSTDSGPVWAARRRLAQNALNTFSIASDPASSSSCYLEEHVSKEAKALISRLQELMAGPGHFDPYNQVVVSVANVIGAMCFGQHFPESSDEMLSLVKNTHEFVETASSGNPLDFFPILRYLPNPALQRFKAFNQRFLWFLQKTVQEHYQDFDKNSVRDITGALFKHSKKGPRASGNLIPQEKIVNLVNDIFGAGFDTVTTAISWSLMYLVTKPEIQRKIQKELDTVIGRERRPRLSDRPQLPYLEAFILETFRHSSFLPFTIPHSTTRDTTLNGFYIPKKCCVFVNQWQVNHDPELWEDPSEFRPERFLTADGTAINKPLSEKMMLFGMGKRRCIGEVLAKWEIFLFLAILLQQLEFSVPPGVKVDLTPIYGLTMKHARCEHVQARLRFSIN
- experiment notes: Two-step luminescent P450 screen of luciferin derivatives
- Format: biochemical
- condition notes: 50 µM substrate, 1 pmole P450; result in words
measure: P450 activity / selectivity with the derivative as substrate

COc1cc(C)c2nc(C3=NC(C(=O)O)CS3)sc2c1 (stereo not drawn) ... enhanced selectivity
COc1cc(OC)c2nc(C3=NC(C(=O)O)CS3)sc2c1 (stereo not drawn) ... enhanced selectivity

###

- system tested: QuantiLum Luciferase (Photinus pyralis)
- Construct: purchased Promega Corporation E170
- experiment notes: Scaffolds: light emission of luciferin derivatives with QuantiLum luciferase alone, + Co A, + DTT, + Co A and DTT
- Assay type: biochemical, firefly
- condition notes: Derivative Conc. 50; DTT
measure: light emission values
Give bare numbers.

Some solved entries appear below for comparison.
NCCCOc1ccc2nc(C3=N[C@@H](C(=O)O)CS3)sc2c1 ... 868903
CCN(CC)c1ccc2nc(C3=NC(C(=O)O)CS3)sc2c1 (centres unmarked) ... 1826771
O=C(O)[C@H]1CSC(c2ccc3cc(Oc4ccc(C(F)(F)F)cc4[N+](=O)[O-])ccc3n2)=N1 ... 22888

State the recorded light emission values for every item in the following list.
1. COc1ccc2nc(C3=N[C@@H](C(=O)O)CS3)sc2c1 [luciferin 6-methyl ether, D-luciferin 6' methyl ether, reference compound]
2. O=C(O)[C@H]1CSC(c2nc3ccc(OCCO)cc3s2)=N1 [2hydroxyethoxyluciferin ether]
3. COC(=O)[C@H]1CSC(c2ccc3cc(Oc4ccc(C(F)(F)F)cc4[N+](=O)[O-])ccc3n2)=N1
4. CN(Cc1ccccc1)c1ccc2nc(C3=NC(C(=O)O)CS3)sc2c1 (centres unmarked)
5. O=C(O)[C@H]1CSC(c2nc3ccc(OCc4ccccc4)cc3s2)=N1 [luciferin 6-benzyl ether, reference compound]

[4052, 98407, 1354, 54238960, 80001]

###

- system tested: QuantiLum Luciferase (Photinus pyralis, UniProt P08659)
- Construct: purchased Promega Corporation E170
- Sequence (P08659 whole entry): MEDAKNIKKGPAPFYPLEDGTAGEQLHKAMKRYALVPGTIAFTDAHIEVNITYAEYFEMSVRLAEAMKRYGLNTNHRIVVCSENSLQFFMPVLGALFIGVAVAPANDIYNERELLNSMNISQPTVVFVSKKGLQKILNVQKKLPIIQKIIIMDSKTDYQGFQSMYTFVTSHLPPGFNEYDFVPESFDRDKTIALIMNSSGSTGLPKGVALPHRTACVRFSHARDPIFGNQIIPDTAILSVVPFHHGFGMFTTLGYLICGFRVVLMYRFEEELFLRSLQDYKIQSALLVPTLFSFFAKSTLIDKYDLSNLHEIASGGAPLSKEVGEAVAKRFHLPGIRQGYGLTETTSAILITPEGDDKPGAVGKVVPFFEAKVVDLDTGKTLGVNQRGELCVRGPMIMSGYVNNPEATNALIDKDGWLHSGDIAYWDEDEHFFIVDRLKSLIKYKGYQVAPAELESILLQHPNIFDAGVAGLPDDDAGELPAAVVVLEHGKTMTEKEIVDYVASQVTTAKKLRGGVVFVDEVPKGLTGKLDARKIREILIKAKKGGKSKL
- experiment notes: Scaffolds: light emission of luciferin derivatives with QuantiLum luciferase alone, + Co A, + DTT, + Co A and DTT
- Format: biochemical, firefly
- condition notes: Derivative Conc. 100; Co A
Provide the recorded light emission values for the entries that follow.
One number for each entry.

State the recorded light emission values for every item in the following list.
1. NCCCOc1ccc2nc(C3=N[C@@H](C(=O)O)CS3)sc2c1
2. COC(=O)[C@H]1CSC(c2ccc3cc(Oc4ccc(C(F)(F)F)cc4[N+](=O)[O-])ccc3n2)=N1
3. O=C(O)[C@H]1CSC(c2nc3ccc(OCCO)cc3s2)=N1 [2hydroxyethoxyluciferin ether]
4. CN(Cc1ccccc1)c1ccc2nc(C3=NC(C(=O)O)CS3)sc2c1 (stereo not shown)

1. 741882
2. 1853
3. 52640
4. 89117784

State the recorded light emission values for every item in the following list.
1. O=C(O)[C@H]1CSC(c2ccc3cc(Oc4ccc(C(F)(F)F)cc4[N+](=O)[O-])ccc3n2)=N1
2. O=C(O)[C@H]1CSC(c2nc3ccc(OCc4ccccc4)cc3s2)=N1 [luciferin 6-benzyl ether, reference compound]
3. COc1ccc2nc(C3=N[C@@H](C(=O)O)CS3)sc2c1 [luciferin 6-methyl ether, D-luciferin 6' methyl ether, reference compound]

[18343, 33199, 3389]
